Cited source: ChEMBL document CHEMBL3045006

TD50 by entry:
# METHOD SUMMARY: Neurotoxicity in ip dosed Mus musculus Swiss (mouse) assessed as minimum motor impairment by rotarod test
# Type: toxicity, organism-based
# DETAILS: Swiss, in vivo
METRIC NAME: TD50 (mg/kg)

1. CCCCCCOc1ccc2c(c1)CCCc1nncn1-2: 84.2
2. CCCCOc1ccc2c(c1)CCCc1nncn1-2: 73.3
3. c1ccc(COc2ccc3c(c2)CCCc2nncn2-3)cc1: 78.9
4. Clc1ccc(COc2ccc3c(c2)CCCc2nncn2-3)cc1: 98.6
5. Fc1ccc(COc2ccc3c(c2)CCCc2nncn2-3)cc1: 97.4
6. Clc1ccccc1COc1ccc2c(c1)CCCc1nncn1-2: 70.9
7. Clc1cccc(COc2ccc3c(c2)CCCc2nncn2-3)c1: 120
8. Brc1ccc(COc2ccc3c(c2)CCCc2nncn2-3)cc1: 96.2
9. Fc1ccccc1COc1ccc2c(c1)CCCc1nncn1-2: 84.9
10. CCCCCOc1ccc2c(c1)CCCc1nncn1-2: 114
11. CCCCCCCOc1ccc2c(c1)CCCc1nncn1-2: 68.4
12. Cc1ccc(COc2ccc3c(c2)CCCc2nncn2-3)cc1: 82.9
